- EXPERIMENTAL SYSTEM: UniProt:P10415
- ASSAY PROCEDURE: Time Resolved-Fluorescence Resonance Energy Transfer (TR-FRET) Bcl-2 binding assay
- CONDITION: GST-Bcl-2 1 nM, F-Bak peptide probe 100 nM, Tb-anti-GST antibody 1 nM; Ki by Wang's equation
ENDPOINT: pKi
Give only the number. pKi is defined as minus log10 of concentration in molar units.

Reference set (2 entries):
COMPOUND	pKi
CN(C)CCCc1c[nH]c2cccc(Oc3cc(N4CCN(CC5=C(c6ccc(Cl)cc6)CC(C)(C)CC5)CC4)ccc3C(=O)NS(=O)(=O)c3ccc(NN4CCN(C)CC4)c([N+](=O)[O-])c3)c12 [Example 340]	9.41
CN(C)CCCNc1ccc(S(=O)(=O)NC(=O)c2ccc(N3CCN(Cc4ccccc4-c4ccc(Cl)cc4)CC3)cc2Oc2ccccc2Cl)cc1[N+](=O)[O-] [Example 11]	9.77

Could you now consider this next compound?
Qu. Please report the recorded pKi for CC1(C)CCC(CN2CCN(c3ccc(C(=O)NS(=O)(=O)c4ccc(NC5CCN(CCc6ccccc6)CC5)c([N+](=O)[O-])c4)c(Oc4cccc(Cl)c4)c3)CC2)=C(c2ccc(Cl)cc2)C1 [Example 163] .
Ans. 9.16

---

- EXPERIMENTAL SYSTEM: GST-Bcl-2 (Homo sapiens (Human), UniProt P10415)
- Sequence (P10415 whole entry): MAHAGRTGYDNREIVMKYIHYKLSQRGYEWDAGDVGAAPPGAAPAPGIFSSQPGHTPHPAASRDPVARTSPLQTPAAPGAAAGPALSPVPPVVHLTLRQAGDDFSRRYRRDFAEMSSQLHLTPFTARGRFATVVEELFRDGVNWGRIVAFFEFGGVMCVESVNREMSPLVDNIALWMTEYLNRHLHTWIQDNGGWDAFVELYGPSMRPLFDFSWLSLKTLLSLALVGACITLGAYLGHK
- ASSAY PROCEDURE: Time Resolved-Fluorescence Resonance Energy Transfer (TR-FRET) Bcl-2 binding assay
- CONDITION: GST-Bcl-2 1 nM, F-Bak peptide probe 100 nM, Tb-anti-GST antibody 1 nM; Ki by Wang's equation
pKi values for the molecules below.
In textbook form, pKi equals minus log to base ten of the concentration in mol/L.

Worked cases, answers included:
STRUCTURE NOTATION	OBSERVED VALUE
CC1(C)CCC(CN2CCN(c3ccc(C(=O)NS(=O)(=O)c4ccc(NC5CCN(C6CCOCC6)CC5)c([N+](=O)[O-])c4)c(Oc4ccc5nc(N)sc5c4)c3)CC2)=C(c2ccc(Cl)cc2)C1	8.98
CC1(C)CCC(CN2CCN(c3ccc(C(=O)NS(=O)(=O)c4cnc(OC5CCN(C6CCOCC6)CC5)c(C#N)c4)c(Oc4cc5cc[nH]c5cc4F)c3)CC2)=C(c2ccc(Cl)cc2)C1	9.74
CN1CCC(Nc2ccc(S(=O)(=O)NC(=O)c3ccc(N4CCN(CC5=C(c6ccc(Cl)cc6)CC(C)(C)CC5)CC4)cc3Oc3ccc4[nH]ccc4c3F)cc2[N+](=O)[O-])CC1	9.14

Qu. pKi for `CC(=O)Nc1ccc(Oc2cc(N3CCN(CC4=C(c5ccc(Cl)cc5)CC(C)(C)CC4)CC3)ccc2C(=O)NS(=O)(=O)c2ccc(NCC3CCOCC3)c([N+](=O)[O-])c2)cn1` ?
Ans. 8.02

---

Form field: Ki (one value per entry).
- EXPERIMENTAL SYSTEM: GST-Bcl-2 (Homo sapiens (Human), UniProt P10415)
- ASSAY PROCEDURE: Time Resolved-Fluorescence Resonance Energy Transfer (TR-FRET) Bcl-2 binding assay
- CONDITION: GST-Bcl-2 1 nM, F-Bak peptide probe 100 nM, Tb-anti-GST antibody 1 nM; Ki by Wang's equation
Numbers only; they are read as nM.

STRUCTURE NOTATION	EXPERIMENTAL SYSTEM	Ki [nM]
O=C(NS(=O)(=O)c1ccc(NCC2CCOCC2)c([N+](=O)[O-])c1)c1ccc(N2CCN(Cc3ccccc3-c3ccc(Cl)cc3)CC2)cc1Oc1cccc(-c2ccccc2)c1	GST-Bcl-2 (Homo sapiens (Human), UniProt P10415)	5.26
CC1(C)CCC(CN2CCN(c3ccc(C(=O)NS(=O)(=O)c4ccc(NCC5CCOCC5)c([N+](=O)[O-])c4)c(Oc4ccnc(NC(=O)OC(C)(C)C)c4)c3)CC2)=C(c2ccc(Cl)cc2)C1	GST-Bcl-2 (Homo sapiens (Human), UniProt P10415)	7.55
CN1CCC(Nc2ccc(S(=O)(=O)NC(=O)c3ccc(N4CCN(CC5=C(c6ccc(Cl)cc6)CC(C)(C)OC5)CC4)cc3Oc3cccc(F)c3F)cc2[N+](=O)[O-])CC1	GST-Bcl-2 (Homo sapiens (Human), UniProt P10415)	0.057
CN1CCN(CCCNc2ccc(S(=O)(=O)NC(=O)c3ccc(N4CCN(CC5=C(c6ccc(Cl)cc6)CC(C)(C)CC5)CC4)cc3Oc3cccc(Cl)c3)cc2[N+](=O)[O-])CC1	GST-Bcl-2 (Homo sapiens (Human), UniProt P10415)	0.053
CCN1CCC(Nc2ccc(S(=O)(=O)NC(=O)c3ccc(N4CCN(CC5=C(c6ccc(Cl)cc6)CC(C)(C)CC5)CC4)cc3Oc3cccc(Cl)c3)cc2[N+](=O)[O-])CC1	GST-Bcl-2 (Homo sapiens (Human), UniProt P10415)	0.037
CC1(C)CCC(CN2CCN(c3ccc(C(=O)NS(=O)(=O)c4ccc(NC5CCN(C6CCOCC6)CC5)c([N+](=O)[O-])c4)c(Oc4cccc(F)c4F)c3)CC2)=C(c2ccc(Cl)cc2)C1	GST-Bcl-2 (Homo sapiens (Human), UniProt P10415)	0.062

Qu. So what does the record say about Ki for `CC1(C)CCC(CN2CCN(c3ccc(C(=O)NS(=O)(=O)c4ccc(NCCCN5CCOCC5)c([N+](=O)[O-])c4)c(Oc4cccc(Cl)c4)c3)CC2)=C(c2ccc(Cl)cc2)C1` ?
Ans. 0.064

Qu. What value of measured Ki is listed for `CN1CCN(Nc2ccc(S(=O)(=O)NC(=O)c3ccc(N4CCN(CC5=C(c6ccc(Cl)cc6)CC(C)(C)OC5)CC4)cc3Oc3cc4cc[nH]c4cc3F)cc2[N+](=O)[O-])CC1` ?
Ans. 0.058

Qu. Need Ki of `CN1CCC(Nc2ccc(S(=O)(=O)NC(=O)c3ccc(N4CCN(CC5=C(c6ccc(Cl)cc6)CC(C)(C)CC5)CC4)cc3Oc3cccc(C(F)(F)F)c3Cl)cc2[N+](=O)[O-])CC1` , thanks.
Ans. 0.458

---

The following compounds are listed with their measured Ki values.
- EXPERIMENTAL SYSTEM: GST-Bcl-2 (Homo sapiens (Human), UniProt P10415)
- ASSAY PROCEDURE: Time Resolved-Fluorescence Resonance Energy Transfer (TR-FRET) Bcl-2 binding assay
- CONDITION: GST-Bcl-2 1 nM, F-Bak peptide probe 100 nM, Tb-anti-GST antibody 1 nM; Ki by Wang's equation
Hi! Could you send only the number? It should be in nM, unit omitted.

STRUCTURE NOTATION	UNIT ANNOTATION	Ki
CN1CCC(Nc2ccc(S(=O)(=O)NC(=O)c3ccc(N4CCN(CC5=C(c6ccc(Cl)cc6)CC(C)(C)OC5)CC4)cc3Oc3cccc(Br)c3)cc2[N+](=O)[O-])CC1	nM	0.028
CN1CC[C@@H](Nc2ccc(S(=O)(=O)NC(=O)c3ccc(N4CCN(CC5=C(c6ccc(Cl)cc6)CC(C)(C)CC5)CC4)cc3Oc3cccc(Cl)c3)cc2[N+](=O)[O-])C1	nM	0.684

Qu. For the compound `CN1CCC(Nc2ccc(S(=O)(=O)NC(=O)c3ccc(N4CCN(CC5=C(c6ccc(Cl)cc6)CC(C)(C)CC5)CC4)cc3OCc3csc(N)n3)cc2[N+](=O)[O-])CC1` , what Ki is on record?
Ans. 10.9

Qu. If you can, please state the reported Ki value of `CC1(C)CCC(CN2CCN(c3ccc(C(=O)NS(=O)(=O)c4ccc(NCCCN5CCNC(=O)C5)c([N+](=O)[O-])c4)c(Oc4cc(F)cc5[nH]ccc45)c3)CC2)=C(c2ccc(Cl)cc2)C1` .
Ans. 0.097

Qu. Which Ki value belongs to `CN1CCC(Nc2ccc(S(=O)(=O)NC(=O)c3ccc(N4CCN(CC5=C(c6ccc(Cl)cc6)CC(C)(C)CC5)CC4)cc3Oc3ccccc3Cl)cc2[N+](=O)[O-])CC1` ?
Ans. 0.049

Qu. Which Ki reading was recorded for the compound `CC1(C)CC(c2ccc(Cl)cc2)=C(CN2CCN(c3ccc(C(=O)NS(=O)(=O)c4cnc(OCC5(F)CCOCC5)c(Cl)c4)c(Oc4cc5cc[nH]c5cc4F)c3)CC2)CO1` ?
Ans. 0.02

Qu. What value of measured Ki is listed for `CC1(C)CCC(CN2CCN(c3ccc(C(=O)NS(=O)(=O)c4cnc(OCC5(F)CCOCC5)c(F)c4)c(Oc4cnc(N)c(Cl)c4)c3)CC2)=C(c2ccc(Cl)cc2)C1` ?
Ans. 0.039

Qu. So what does the record say about Ki for `O=C(NS(=O)(=O)c1ccc(NCCCN2CCOCC2)c([N+](=O)[O-])c1)c1ccc(N2CCN(Cc3ccccc3-c3ccc(Cl)cc3)CC2)cc1Oc1cccc(CO)c1` ?
Ans. 0.754

Qu. Any idea what Ki was measured for `CC1(C)CCC(CN2CCN(c3ccc(C(=O)NS(=O)(=O)c4ccc(NC5CCN(C6CC6)CC5)c([N+](=O)[O-])c4)c(Oc4ccccc4F)c3)CC2)=C(c2ccc(Cl)cc2)C1` ?
Ans. 0.11
